Target: T1, human ROR2-ECD (human, UniProt Q01974 34-403)
T1 construct: extracellular domain; also called hROR2
T1 sequence (Q01974 34-403): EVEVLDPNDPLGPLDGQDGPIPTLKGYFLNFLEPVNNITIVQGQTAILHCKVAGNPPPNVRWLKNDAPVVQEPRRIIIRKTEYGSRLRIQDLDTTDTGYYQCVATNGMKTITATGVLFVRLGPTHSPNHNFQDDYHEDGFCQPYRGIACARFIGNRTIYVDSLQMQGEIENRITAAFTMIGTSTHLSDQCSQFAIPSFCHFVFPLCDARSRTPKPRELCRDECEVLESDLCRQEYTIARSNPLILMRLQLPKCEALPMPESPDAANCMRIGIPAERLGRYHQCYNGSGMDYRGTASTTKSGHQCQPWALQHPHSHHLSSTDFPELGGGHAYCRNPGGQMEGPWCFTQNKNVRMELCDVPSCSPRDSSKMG
Assay: phage antibody protein ELISA
REPORTED PROPERTY: binding result

P601-28 (scFv, V domains shown) VH: EVQLVQSGGDLVQPGGSLRLSCAASGFTFSSYSMNWVRQAPGKGLEWVSSISSSSSYIYYADSVKGRFTISRDNAKNSLYLQMNSLRAEDTAVYYCARGLGGWTHDAFDIWGQGTTVTVSS VL: QSALTQPASVSGSPGQSITISCTGTSSDVGGYNYVSWYQQHPGKAPKLMIFDVSNRPSGVSNRFSGSKSGNTASLTISGLQAEDEADYYCSSYTSSSTLFGGGTKLTVL | no binding
P601-14 (scFv, V domains shown) VH: QVQLVQSGAEVKKPGESLKISCKDSGYSFTNYWLGWVRQMPGKGLEWMGIIYPGDSDTRYSPSFRGQVTISADKSISTAYLQWSSLKASDTAMYYCARLNLATHTAFDIWGQGTTVTVSS VL: QSVLTQPASVSGSPGQSITISCTGTSSDVGGYNYVSWYQQHPGKAPKLMIYDVSNRPSGVSNRFSGSKSGNTASLTISGLQAEDEADYYCSSYTSSSTLWVFGGGTKLTVLG | no binding
P601-37 (scFv, V domains shown) VH: EVQLVQSGAEVKKPGASVKVSCKASGYTFNNYGFSWVRQAPGQGLEWMGWISVYNGNTNYAQKLQGRVTMTTDTSTSTAYMELRSLRSDDTAVYYCARDYYSDSSGYWDDAFDIWGQGTMVTVSS VL: AIRMTQSPSSLSASVGDRVTITCQASQDISNYLNWYQQKPGKAPKLLIYAASSLQSGVPSRFSGSGSGTDFTLTISSLQPEDFATYYCQQSYSTPFTFGPGTKVDIK | no binding
